Each recorded value in this set is attributed to the supplement of paper PMC6555819.

Each entry below carries its recorded PBM binding z-score.
# Tested on: PPARg homodimer (NR concentration 180 nM)
# Procedure text: PBM binding z-score (relative to random genomic background probes); higher = stronger binding; sequences stand for … in GC…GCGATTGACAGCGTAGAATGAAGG
Measured attribute: PBM binding z-score

[[record]]
seq_string = "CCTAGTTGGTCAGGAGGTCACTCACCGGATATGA"
measured_number = 3.04

[[record]]
seq_string = "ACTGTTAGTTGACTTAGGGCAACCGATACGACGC"
measured_number = 0.977

[[record]]
seq_string = "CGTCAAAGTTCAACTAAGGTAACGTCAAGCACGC"
measured_number = 3.82

[[record]]
seq_string = "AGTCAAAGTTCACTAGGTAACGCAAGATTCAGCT"
measured_number = 2.5

[[record]]
seq_string = "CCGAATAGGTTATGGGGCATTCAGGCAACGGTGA"
measured_number = 0.678

[[record]]
seq_string = "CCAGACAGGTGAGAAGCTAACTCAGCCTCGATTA"
measured_number = 0.381

[[record]]
seq_string = "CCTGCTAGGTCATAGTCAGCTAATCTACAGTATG"
measured_number = 1.15

[[record]]
seq_string = "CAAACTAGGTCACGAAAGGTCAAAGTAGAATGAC"
measured_number = 6.18

[[record]]
seq_string = "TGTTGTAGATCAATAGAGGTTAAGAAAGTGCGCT"
measured_number = 1.38

[[record]]
seq_string = "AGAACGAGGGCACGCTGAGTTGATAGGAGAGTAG"
measured_number = 0.451

[[record]]
seq_string = "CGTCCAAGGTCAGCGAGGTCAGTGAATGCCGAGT"
measured_number = 4.66

[[record]]
seq_string = "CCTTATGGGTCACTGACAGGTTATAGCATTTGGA"
measured_number = 2.16


###

# Test system: RARa homodimer (NR concentration 270 nM)
# Procedure text: PBM binding z-score (relative to random genomic background probes); higher = stronger binding; sequences stand for … in GC…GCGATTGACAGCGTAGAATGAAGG
Mark Met for reported PBM binding z-score of -0.02 or greater; mark Not met for anything smaller.

[[record]]
seq_string = "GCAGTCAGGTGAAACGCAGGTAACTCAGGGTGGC"
system_under_test = "RARa homodimer (NR concentration 270 nM)"
group = "Not met"

[[record]]
seq_string = "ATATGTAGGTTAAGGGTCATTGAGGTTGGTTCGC"
system_under_test = "RARa homodimer (NR concentration 270 nM)"
group = "Met"

[[record]]
seq_string = "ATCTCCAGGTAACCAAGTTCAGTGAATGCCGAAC"
system_under_test = "RARa homodimer (NR concentration 270 nM)"
group = "Met"

[[record]]
seq_string = "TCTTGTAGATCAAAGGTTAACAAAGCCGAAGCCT"
system_under_test = "RARa homodimer (NR concentration 270 nM)"
group = "Met"

[[record]]
seq_string = "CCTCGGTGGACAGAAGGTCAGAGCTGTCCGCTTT"
system_under_test = "RARa homodimer (NR concentration 270 nM)"
group = "Not met"

[[record]]
seq_string = "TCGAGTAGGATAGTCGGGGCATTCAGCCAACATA"
system_under_test = "RARa homodimer (NR concentration 270 nM)"
group = "Not met"

[[record]]
seq_string = "ACTTGCAGGCCAAGGGTCACTCAAGATTAGTCCG"
system_under_test = "RARa homodimer (NR concentration 270 nM)"
group = "Met"

[[record]]
seq_string = "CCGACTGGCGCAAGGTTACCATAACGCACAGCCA"
system_under_test = "RARa homodimer (NR concentration 270 nM)"
group = "Met"

[[record]]
seq_string = "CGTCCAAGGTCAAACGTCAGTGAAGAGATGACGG"
system_under_test = "RARa homodimer (NR concentration 270 nM)"
group = "Met"

[[record]]
seq_string = "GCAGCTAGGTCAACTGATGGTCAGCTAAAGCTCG"
system_under_test = "RARa homodimer (NR concentration 270 nM)"
group = "Not met"

[[record]]
seq_string = "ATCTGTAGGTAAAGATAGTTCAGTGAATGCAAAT"
system_under_test = "RARa homodimer (NR concentration 270 nM)"
group = "Met"

[[record]]
seq_string = "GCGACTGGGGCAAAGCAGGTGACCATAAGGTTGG"
system_under_test = "RARa homodimer (NR concentration 270 nM)"
group = "Not met"

